target: T1, P17-His protein (human CD40 antigen) (human, UniProt P25942 21-193, limits assumed); assay: BLI (Fortebio Octet RED96), antibody on Protein A sensor, P17-His 5-40 nM
T1 construct: also called human CD40 antigen (P17-His)
T1 sequence (P25942 other isoform, or with tags, fused parts or gaps limits assumed): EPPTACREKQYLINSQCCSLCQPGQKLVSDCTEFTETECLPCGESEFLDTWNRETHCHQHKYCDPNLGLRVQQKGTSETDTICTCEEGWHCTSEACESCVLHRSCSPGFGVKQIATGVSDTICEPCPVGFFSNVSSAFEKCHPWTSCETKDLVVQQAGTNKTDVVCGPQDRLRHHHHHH
Each entry below carries its recorded pKd.
// pKd here means minus log10 of the molar concentration (mol/L)

C8-7 antibody (antibody, V domains shown) VH: EVQLLESGGGLVRPGGSLRLSCAASGFTFGSYEMNWVRQAPGKGLEWVSYISSSGETTDYADSVKGRFTVSRDNSKNLLYLQMNSLRAEDTAVYYCARDVFFFDSSGDNHAYGMDVWGQGTMVTVSS VL: DIQLTQSPSSLTASVGDRVTITCRSSQGIRSSLAWYQQKPGKPPKLLIYGASSLEGGVPSRFSGSGSGTDFTLTISSLQPEDFATYYCQQLNSFPSTFGQGTKLEIK    7.91

Using the record for C8 clone anti-CD40 full-length antibody (antibody, human IgG1, kappa, V domains shown, also called C8-WT; C8 parent antibody) VH: EVQLLESGGGLVRPGGSLRLSCAASGFTFGSYEMNWVRQAPGKGLEWVSYISSSGETTDYADSVKGRFTVSRDNSKNLLYLQMNSLRAEDTAVYYCARDVFFFDSSGDNGAYGMDVWGQGTMVTVSS VL: DIQLTQSPSSLTASVGDRVTITCRSSQGIRSSLAWYQQKPGKPPKLLIYGASSLEGGVPSRFSGSGSGTDFTLTISSLQPEDFATYYCQQLNSFPSTFGQGTKLEIKR , report its pKd. 7.71
